These data points were gathered from patent US20220064276A1.

Kindly state Kd for each of the entries shown.
tested system: T1, human GARP-proTGFβ1 complex (human, UniProt Q14392 18-627; P01137 30-390, limits assumed)
T1 construct: Exemplary entries; also called Hu GARP-proTGFβ1; huGARP proTGFb1
T1 sequence (Q14392 18-627 limits assumed, chain 1 of 2): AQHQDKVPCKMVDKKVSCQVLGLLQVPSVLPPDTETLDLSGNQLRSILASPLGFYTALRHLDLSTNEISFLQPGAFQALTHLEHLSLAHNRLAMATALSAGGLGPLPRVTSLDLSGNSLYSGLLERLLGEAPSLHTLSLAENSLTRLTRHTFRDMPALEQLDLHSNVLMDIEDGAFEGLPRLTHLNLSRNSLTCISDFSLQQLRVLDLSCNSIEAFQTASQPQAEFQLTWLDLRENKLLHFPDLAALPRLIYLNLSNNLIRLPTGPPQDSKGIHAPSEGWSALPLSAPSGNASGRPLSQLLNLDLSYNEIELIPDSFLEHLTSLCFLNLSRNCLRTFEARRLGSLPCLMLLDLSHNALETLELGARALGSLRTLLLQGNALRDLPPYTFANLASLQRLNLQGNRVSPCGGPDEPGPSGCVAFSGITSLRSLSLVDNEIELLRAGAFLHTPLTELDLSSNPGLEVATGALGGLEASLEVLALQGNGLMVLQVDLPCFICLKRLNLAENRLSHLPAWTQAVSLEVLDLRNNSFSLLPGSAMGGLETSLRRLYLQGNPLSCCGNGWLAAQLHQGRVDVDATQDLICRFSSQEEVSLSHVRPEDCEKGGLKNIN
T1 sequence (P01137 30-390 limits assumed, chain 2 of 2): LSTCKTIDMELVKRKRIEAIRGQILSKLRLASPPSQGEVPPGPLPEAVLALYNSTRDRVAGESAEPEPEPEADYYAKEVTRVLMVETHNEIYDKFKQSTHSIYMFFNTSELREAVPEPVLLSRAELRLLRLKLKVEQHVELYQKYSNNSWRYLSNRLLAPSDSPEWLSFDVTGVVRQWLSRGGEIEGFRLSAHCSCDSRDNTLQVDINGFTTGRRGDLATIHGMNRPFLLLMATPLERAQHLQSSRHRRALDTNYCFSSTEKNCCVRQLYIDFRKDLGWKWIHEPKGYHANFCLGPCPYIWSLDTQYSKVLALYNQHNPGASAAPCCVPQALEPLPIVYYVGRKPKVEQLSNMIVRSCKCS
procedure summary: Octet BLI, IgG captured
Give me the value, and tack the unit on after it.

Q: Indicate its recorded Kd; the binder in question is SR-AB39 (antibody, IgG1, V domains shown, Cycle 3, lineage SR-AB22) VH: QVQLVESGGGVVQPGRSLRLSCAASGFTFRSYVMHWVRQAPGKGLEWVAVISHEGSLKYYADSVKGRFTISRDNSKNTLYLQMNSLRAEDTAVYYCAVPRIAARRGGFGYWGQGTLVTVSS VL: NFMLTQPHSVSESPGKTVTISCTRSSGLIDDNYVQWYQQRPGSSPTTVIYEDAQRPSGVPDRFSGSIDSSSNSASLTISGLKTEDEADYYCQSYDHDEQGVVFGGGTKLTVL
Ans: 389 nM

Q: Note down Kd recorded for SR-AB38 (antibody, IgG1, V domains shown, Cycle 3, lineage SR-AB22) VH: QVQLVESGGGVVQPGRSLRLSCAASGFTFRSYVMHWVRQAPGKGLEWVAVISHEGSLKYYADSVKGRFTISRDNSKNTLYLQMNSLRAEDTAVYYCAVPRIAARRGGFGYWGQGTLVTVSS VL: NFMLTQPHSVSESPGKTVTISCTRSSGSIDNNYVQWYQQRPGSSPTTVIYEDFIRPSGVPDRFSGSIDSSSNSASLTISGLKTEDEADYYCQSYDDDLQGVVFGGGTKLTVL
Ans: 8.42 nM

Q: Hello, please tell me recorded Kd for this one: SR-AB45 (antibody, IgG1, V domains shown, Cycle 3, lineage SR-AB23) VH: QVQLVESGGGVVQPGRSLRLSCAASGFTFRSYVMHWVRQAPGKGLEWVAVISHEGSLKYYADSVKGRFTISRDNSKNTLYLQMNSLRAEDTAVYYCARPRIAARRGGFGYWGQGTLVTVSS VL: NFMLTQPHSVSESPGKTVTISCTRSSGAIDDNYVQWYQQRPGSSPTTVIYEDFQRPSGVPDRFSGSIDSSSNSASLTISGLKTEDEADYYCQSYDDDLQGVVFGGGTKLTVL
Ans: 195 nM
